Test Method Notes: Toxicity liver stage against HepG2, at 10uM
Format: cell-based
Set-up: test concentration 10 uM, cell line HepG2-A16-CD81EGFP
Test Context: human, HepG2-A16-CD81EGFP cells; read-out: INHIBITION
Quantity Measured: cytotoxicity at 10 µM (%)
Numbers only here, please. The scale is %.

Some molecules with recorded cytotoxicity at 10 µM:
[
  {
    "Molecule": "CC(C)c1nc(CN2CCN(C(=O)CN3CCOCC3)CC2)no1",
    "Number": -7.8
  },
  {
    "Molecule": "Cn1c(CN2CCC(O)CC2)nnc1C1CCCN(C(=O)C2CNC2)C1 (stereo unspecified)",
    "Number": 3.19
  }
]

Query block: Let me know recorded cytotoxicity at 10 µM for "O=C(NC[C@H]1OC[C@@H](NC2CCOCC2)[C@@H]1O)Nc1ccccc1" , thanks.
Result block: -5.75

Query block: Let me know recorded cytotoxicity at 10 µM for OC(CN1CCC(c2ccn[nH]2)CC1)c1ccc(F)cc1F (stereo unspecified) , thanks.
Result block: -17.9

Query block: Let me know recorded cytotoxicity at 10 µM for "CC(=O)c1c(O)n(C)c2ccc(C)cc12" , thanks.
Result block: 8.58

Query block: Let me know recorded cytotoxicity at 10 µM for "O=C(NCc1cccs1)[C@H]1CC[C@@H]2[C@@H](CCN2C2CCC2)O1" , thanks.
Result block: -6.34

Query block: Let me know recorded cytotoxicity at 10 µM for Cc1cccc(CN2CCCC(O)(CNCCc3c[nH]cn3)C2=O)c1 (stereo unspecified) , thanks.
Result block: 1.31

Query block: Let me know recorded cytotoxicity at 10 µM for Cc1nc(CN2CCN(C(C)c3nc(C4CC4)no3)CC2)oc1C (stereo unspecified) , thanks.
Result block: -5.95

Query block: Let me know recorded cytotoxicity at 10 µM for COC(=O)c1cc(NC(=O)NCC2CCS(=O)(=O)C2)ccc1Cl (stereo unspecified) , thanks.
Result block: 2.57

Query block: Let me know recorded cytotoxicity at 10 µM for CNC(=O)NC(=O)CNC(CC(F)(F)F)c1ccc(F)cc1 (stereo unspecified) , thanks.
Result block: 7.69

Query block: Let me know recorded cytotoxicity at 10 µM for Cc1cc(C(C)NC(=O)c2cnc3onc(C)c3c2)c(C)o1 (stereo unspecified) , thanks.
Result block: 6.15

Query block: Let me know recorded cytotoxicity at 10 µM for COc1cccc(NC(C(N)=O)c2ccc(Br)cc2)c1 (stereo unspecified) , thanks.
Result block: 11.3

Query block: Let me know recorded cytotoxicity at 10 µM for "Cc1ccc(N2CCN(C(=O)COc3ccccc3)CC2)nn1" , thanks.
Result block: -14.6

Query block: Let me know recorded cytotoxicity at 10 µM for Cc1cc(CN2CCC(C3CCN(Cc4cccnc4)CC3)C2)[nH]n1 (stereo unspecified) , thanks.
Result block: 11

Query block: Let me know recorded cytotoxicity at 10 µM for "O=C(NCc1cccnc1)c1nc2c(s1)CCCN2c1ncccn1" , thanks.
Result block: 8.44

Query block: Let me know recorded cytotoxicity at 10 µM for CCn1ncnc1C(C)NC(=O)Cc1cc2c(cc1Cl)OCCO2 (stereo unspecified) , thanks.
Result block: -6.38

====

The following compounds are listed with their measured cytotoxicity at 10 µM values.
Test Method Notes: Toxicity liver stage against HepG2, at 10uM
Format: cell-based
Set-up: test concentration 10 uM, cell line HepG2-A16-CD81EGFP
Test Context: human, HepG2-A16-CD81EGFP cells; read-out: INHIBITION
Numbers only here, please. The scale is %.

Some compounds with recorded cytotoxicity at 10 µM:
[
  {
    "Compound": "CCc1cc(NC2CCN(CC(N)=O)CC2)nc(N2CCCCC2)n1",
    "Display Unit": "%",
    "Number": -4.75
  },
  {
    "Compound": "CCc1nc(C(=O)N2CCN(Cc3ccc(Cl)cc3)CC2)c[nH]1",
    "Display Unit": "%",
    "Number": -6.85
  },
  {
    "Compound": "Cc1noc(CCCC(=O)N(CC2CCOC2)C2CC2)n1 (stereo not given)",
    "Display Unit": "%",
    "Number": 13
  }
]

Query block: Let me know recorded cytotoxicity at 10 µM for CC1CC2(CCN(C(=O)c3csnn3)CC2)c2ccccc21 (stereo not given) , thanks.
Result block: -137

Query block: Let me know recorded cytotoxicity at 10 µM for "Cc1ccn(-c2ccccc2NCc2scnc2C)n1" , thanks.
Result block: 7.28

Query block: Let me know recorded cytotoxicity at 10 µM for "CC(C)NC(=O)Nc1ccc(CS(=O)(=O)C(C)(C)C)cc1" , thanks.
Result block: -1.97

Query block: Let me know recorded cytotoxicity at 10 µM for "CNS(=O)(=O)c1cccc(CNc2ccc(C(F)(F)F)nn2)c1" , thanks.
Result block: -11.4

Query block: Let me know recorded cytotoxicity at 10 µM for "O=C(CCn1cc(Cl)cn1)Nc1ccc2c(c1)OCCO2" , thanks.
Result block: -2.18

Query block: Let me know recorded cytotoxicity at 10 µM for "COc1ccc(C(=O)N(CCO)Cc2ccccc2)c(OC)n1" , thanks.
Result block: 3.33

Query block: Let me know recorded cytotoxicity at 10 µM for "CCc1nc(C)sc1CN1CC[C@@](O)(CCOC)[C@H](C)C1" , thanks.
Result block: -1.18
